assay: Plasma pharmacokinetics; type: in vivo, human; details: human, plasma, oral, 40 mg, Mean AUC24h, 40 mg once daily, dose expansion, TNBC
READOUT_KIND: AUC(0-t) (ng·h/mL)
Numbers only, in ng·h/mL.

Need AUC(0-t), item "Cc1csc(-c2nnc(Nc3ccc(Oc4ncccc4-c4ccnc(N)n4)cc3)c3ccccc23)c1"
10600

----------
experiment: Plasma pharmacokinetics; format: in vivo, human; settings: human, plasma, oral
READOUT_KIND: half-life

What half-life value was documented for this molecule, "Cc1csc(-c2nnc(Nc3ccc(Oc4ncccc4-c4ccnc(N)n4)cc3)c3ccccc23)c1" ?
6 to 9 h

----------
assay: Plasma pharmacokinetics; type: in vivo, human; settings: human, plasma, oral
READOUT_KIND: Tmax

Entry "Cc1csc(-c2nnc(Nc3ccc(Oc4ncccc4-c4ccnc(N)n4)cc3)c3ccccc23)c1" has what Tmax?
1 to 3 h

----------
assay: Plasma pharmacokinetics; assay type: in vivo, human; settings: human, plasma, oral, 40 mg, Mean AUC24h, 40 mg once daily, dose expansion, CRPC
READOUT_KIND: AUC(0-t) (ng·h/mL)
One number for each entry, in ng·h/mL.

# AUC(0-t) lookup, item "Cc1csc(-c2nnc(Nc3ccc(Oc4ncccc4-c4ccnc(N)n4)cc3)c3ccccc23)c1"
7700

Where do the numbers come from? From paper PMC6639057.
